molecular target: Peroxisome proliferator-activated receptor alpha (Homo sapiens) (UniProt Q07869); assay: Partial agonist activity at Gal4-fused PPARalpha LBD (unknown origin) expressed in HEK293T cells after 14 to 16 hrs by dual-Glo luciferase assay relative to GW7647; format: cell-based
Sequence (Q07869 whole entry, the tested form may be a part): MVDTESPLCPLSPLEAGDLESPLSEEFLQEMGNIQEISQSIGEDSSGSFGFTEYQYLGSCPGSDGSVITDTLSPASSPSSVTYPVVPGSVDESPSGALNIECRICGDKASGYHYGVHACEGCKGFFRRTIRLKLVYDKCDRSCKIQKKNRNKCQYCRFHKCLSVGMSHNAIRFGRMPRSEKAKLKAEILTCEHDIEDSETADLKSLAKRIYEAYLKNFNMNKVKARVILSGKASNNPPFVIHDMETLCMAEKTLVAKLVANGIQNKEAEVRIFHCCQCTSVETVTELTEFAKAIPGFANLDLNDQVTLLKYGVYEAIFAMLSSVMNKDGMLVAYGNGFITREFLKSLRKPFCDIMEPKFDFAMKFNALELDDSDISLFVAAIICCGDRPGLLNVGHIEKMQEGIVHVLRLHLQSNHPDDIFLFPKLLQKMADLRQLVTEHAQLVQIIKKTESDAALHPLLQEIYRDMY
observedProperty: max activation
Kindly write the number and append the unit.

// solved cases for max activation follow
molecule	max activation
CCCCCC[C@@H](Sc1nc2ccc(NS(=O)(=O)c3ccc(Cl)cc3Cl)cc2s1)C(=O)O	18%
CCCCCCC(Sc1nc2ccc(NS(=O)(=O)c3ccc(Cl)cc3Cl)cc2s1)C(=O)O (stereo not given)	29%
CCCCCCC(Sc1nc2ccc(NS(=O)(=O)c3ccc(C(C)(C)C)cc3)cc2s1)C(=O)O (stereo not given)	17%
CCCCCCC(Sc1nc2ccc(NS(=O)(=O)c3ccc(Cl)cc3)cc2s1)C(=O)O (stereo not given)	16%

Lab note: next molecule to report on.
// sample CCCCCCC(Sc1nc2ccc(NCc3ccc(-c4ccccc4)cc3)cc2s1)C(=O)O (stereo not given) , its max activation was 26%

----------
target: Peroxisome proliferator-activated receptor alpha (Homo sapiens); test: Partial agonist activity at Gal4-fused PPARalpha LBD (unknown origin) expressed in HEK293T cells after 14 to 16 hrs by dual-Glo luciferase assay
Sequence (Q07869 whole entry, the tested form may be a part): as above
observedProperty: pEC50
Note on units: pEC50 is unitless, being -log10 of a concentration expressed in mol/L.

Use these answered entries as a reference point.
molecule	pEC50
CCCCCCC(Sc1nc2ccc(NCc3ccc(Cl)c(Cl)c3)cc2s1)C(=O)O (stereo not drawn)	5.85
CCCCCCC(Sc1nc2ccc(NCc3ccc(-c4ccccc4)cc3)cc2s1)C(=O)O (stereo not drawn)	6.40
CCCCCCC(Sc1nc2ccc(NCc3ccc(C(F)(F)F)cc3)cc2s1)C(=O)O (stereo not drawn)	5.51
CCCCCCC(Sc1nc2ccc(NS(=O)(=O)c3ccc(Cl)cc3Cl)cc2s1)C(=O)O (stereo not drawn)	6.30
CCCCCCC(Sc1nc2ccc(NCc3ccc(C(C)(C)C)cc3)cc2s1)C(=O)O (stereo not drawn)	5.40

# context switch: different molecule, same pEC50
Value of pEC50 reported for the molecule CCCCCCC(Sc1nc2ccc(NC(=O)c3ccc(C(C)(C)C)cc3)cc2s1)C(=O)O (stereo not drawn) is 5.51

----------
target: Peroxisome proliferator-activated receptor delta (Homo sapiens, UniProt Q03181); test: Partial agonist activity at Gal4-fused PPARdelta LBD (unknown origin) expressed in HEK293T cells after 14 to 16 hrs by dual-Glo luciferase assay
Sequence (Q03181 whole entry, the tested form may be a part): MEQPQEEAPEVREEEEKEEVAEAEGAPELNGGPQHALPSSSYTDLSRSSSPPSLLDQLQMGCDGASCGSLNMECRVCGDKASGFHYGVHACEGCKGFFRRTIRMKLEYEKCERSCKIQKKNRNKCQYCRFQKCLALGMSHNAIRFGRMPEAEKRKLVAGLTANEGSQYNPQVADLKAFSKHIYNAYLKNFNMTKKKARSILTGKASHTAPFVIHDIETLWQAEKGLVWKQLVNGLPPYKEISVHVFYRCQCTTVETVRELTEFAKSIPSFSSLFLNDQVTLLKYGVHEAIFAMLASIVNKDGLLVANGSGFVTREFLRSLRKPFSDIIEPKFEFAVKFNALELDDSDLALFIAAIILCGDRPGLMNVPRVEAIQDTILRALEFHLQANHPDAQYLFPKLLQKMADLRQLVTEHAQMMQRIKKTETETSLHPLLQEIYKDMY
pEC50: −log10 of the molar value.
observedProperty: pEC50

molecule	endpointResult
CCCCCCC(Sc1nc2ccc(NCc3ccc(C(F)(F)F)cc3)cc2s1)C(=O)O (stereo not drawn)	< 5.00

Memo: CCCCCCC(Sc1nc2ccc(NCc3ccc(-c4ccccc4)cc3)cc2s1)C(=O)O (stereo not drawn) , reported pEC50: < 5.00

The molecule identified as CCCCCCC(Sc1nc2ccc(NCc3ccc(Cl)c(Cl)c3)cc2s1)C(=O)O (stereo not drawn) registered its pEC50 at < 5.00

----------
Molecular target: Peroxisome proliferator-activated receptor gamma (Homo sapiens)
Sequence (P37231 whole entry): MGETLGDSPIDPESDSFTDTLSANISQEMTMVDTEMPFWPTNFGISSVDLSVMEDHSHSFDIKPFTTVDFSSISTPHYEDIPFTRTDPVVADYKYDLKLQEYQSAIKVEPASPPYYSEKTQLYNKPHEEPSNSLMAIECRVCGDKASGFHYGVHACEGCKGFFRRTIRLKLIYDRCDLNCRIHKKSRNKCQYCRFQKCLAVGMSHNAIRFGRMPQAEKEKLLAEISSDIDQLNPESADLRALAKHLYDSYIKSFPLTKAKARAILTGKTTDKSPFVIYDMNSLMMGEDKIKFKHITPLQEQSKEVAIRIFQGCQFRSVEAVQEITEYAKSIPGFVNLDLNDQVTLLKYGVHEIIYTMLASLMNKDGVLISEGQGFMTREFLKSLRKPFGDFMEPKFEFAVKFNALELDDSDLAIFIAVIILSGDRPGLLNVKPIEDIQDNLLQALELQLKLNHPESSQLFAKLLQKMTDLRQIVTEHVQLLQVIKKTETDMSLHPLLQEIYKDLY
Test: Partial agonist activity at Gal4-fused PPARgamma LBD (unknown origin) expressed in HEK293T cells after 14 to 16 hrs by dual-Glo luciferase assay
Format: cell-based
observedProperty: EC50
Remember to quote the unit after the number.

molecule	endpointResult
CCCCCCC(Sc1nc2ccc(NCc3cccc(Cl)c3)cc2s1)C(=O)O (stereo not drawn)	1500 nM
CCCCCCC(Sc1nc2ccc(NS(=O)(=O)c3ccc(C(C)(C)C)cc3)cc2s1)C(=O)O (stereo not drawn)	700 nM
CCCCCCC(Sc1nc2ccc(NCc3ccc(-c4ccccc4)cc3)cc2s1)C(=O)O (stereo not drawn)	770 nM

Summary: CCCCCC[C@H](Sc1nc2ccc(NS(=O)(=O)c3ccc(Cl)cc3Cl)cc2s1)C(=O)O , Peroxisome proliferator-activated receptor gamma (Homo sapiens), EC50 = 160 nM

These data points were gathered from ChEMBL document CHEMBL4354876.
